tested on: Salmonella enteritidis; assay: Stimulation of innate immunity against Salmonella Enteritidis; conditions: liposomal, 20 nmol per dose p.o. 72 and 24 h before infection (LD50); 5 mice
Quick reference for Day 12 Lungs: clear/infected/dead among some molecules

Molecule: CCCCCCCCCCCCCCCCCC(=O)N[C@H]1[C@H](O[C@H]2[C@H](OCC(=O)N[C@@H](CC)C(=O)N[C@H](CCC(=O)O)C(N)=O)[C@@H](NC(C)=O)C(O)O[C@@H]2CO)O[C@H](CO)[C@@H](O)[C@@H]1O (stereo partly shown)
Endpoint name: Day 12 Lungs: clear/infected/dead
Result: 1/2/2
--
Molecule: CCCCCCCCCCCCCCCCCC(=O)NCCCC[C@H](NC(=O)CC[C@@H](NC(=O)[C@H](CC)NC(=O)CO[C@H]1[C@H](O[C@@H]2O[C@H](CO)[C@@H](O)[C@H](O)[C@H]2NC(C)=O)[C@@H](CO)OC(O)[C@@H]1NC(C)=O)C(N)=O)C(=O)O (stereo partly shown)
Endpoint name: Day 12 Lungs: clear/infected/dead
Result: 1/1/3
--
Molecule: CCCCCCCCCCCCCCC(CCCCCCCCCCCCCC)C(=O)OC[C@H]1OC(O)[C@H](NC(C)=O)[C@@H](OCC(=O)N[C@@H](CC)C(=O)N[C@H](CCC(=O)O)C(N)=O)[C@@H]1O (stereo partly shown)
Endpoint name: Day 12 Lungs: clear/infected/dead
Result: 4/0/1

Here is another molecule to look at.
Field request: Day 12 Lungs: clear/infected/dead | item: CCCCCCCCCCCCCCC(CCCCCCCCCCCCCC)C(=O)NCCCC[C@H](NC(=O)CC[C@@H](NC(=O)[C@H](CC)NC(=O)CO[C@H]1[C@H](O)[C@@H](CO)OC(O)[C@@H]1NC(C)=O)C(N)=O)C(=O)O (stereo partly shown)
2/2/1

---

Quick reference for Day 12 Spleen: clear/infected/dead among some compounds
system: Salmonella enteritidis; assay: Stimulation of innate immunity against Salmonella Enteritidis; conditions: liposomal, 20 nmol per dose p.o. 72 and 24 h before infection (LD50); 5 mice

Compound: CCCCCCCCCCCCCCC(CCCCCCCCCCCCCC)C(=O)OC[C@H]1OC(O)[C@H](NC(C)=O)[C@@H](OCC(=O)N[C@@H](CC)C(=O)N[C@H](CCC(=O)O)C(N)=O)[C@@H]1O (stereo partly shown)
Result: 4/0/1

Field request: Day 12 Spleen: clear/infected/dead | item: CCCCCCCCCCCCCCCCCC(=O)N[C@H]1[C@H](O[C@H]2[C@H](OCC(=O)N[C@@H](CC)C(=O)N[C@H](CCC(=O)O)C(N)=O)[C@@H](NC(C)=O)C(O)O[C@@H]2CO)O[C@H](CO)[C@@H](O)[C@@H]1O (stereo partly shown)
1/2/2

Field request: Day 12 Spleen: clear/infected/dead | item: CCCCCCCCCCCCCCCCCC(=O)NCCCC[C@H](NC(=O)CC[C@@H](NC(=O)[C@H](CC)NC(=O)CO[C@H]1[C@H](O[C@@H]2O[C@H](CO)[C@@H](O)[C@H](O)[C@H]2NC(C)=O)[C@@H](CO)OC(O)[C@@H]1NC(C)=O)C(N)=O)C(=O)O (stereo partly shown)
1/1/3

Field request: Day 12 Spleen: clear/infected/dead | item: CCCCCCCCCCCCCCC(CCCCCCCCCCCCCC)C(=O)NCCCC[C@H](NC(=O)CC[C@@H](NC(=O)[C@H](CC)NC(=O)CO[C@H]1[C@H](O[C@@H]2O[C@H](CO)[C@@H](O)[C@H](O)[C@H]2NC(C)=O)[C@@H](CO)OC(O)[C@@H]1NC(C)=O)C(N)=O)C(=O)O (stereo partly shown)
2/1/2

---

test system: Friend leukemia virus (FLV); test: Friend leukemia virus infection: survival, TER-119+ cells, spleen; settings: day 16; FIG. 25

Molecule: CCCCCCCCCCCCCCC(CCCCCCCCCCCCCC)C(=O)NCCCC[C@H](NC(=O)CC[C@@H](NC(=O)[C@H](CC)NC(=O)CO[C@H]1[C@H](O[C@@H]2O[C@H](CO)[C@@H](O)[C@H](O)[C@H]2NC(C)=O)[C@@H](CO)OC(O)[C@@H]1NC(C)=O)C(N)=O)C(=O)O (stereo partly shown)
spleen size (weight): increased spleen size

Molecule: CCCCCCCCCCCCCCCCCC(=O)N[C@H]1[C@H](O[C@H]2[C@H](OCC(=O)N[C@@H](CC)C(=O)N[C@H](CCC(=O)O)C(N)=O)[C@@H](NC(C)=O)C(O)O[C@@H]2CO)O[C@H](CO)[C@@H](O)[C@@H]1O (stereo partly shown)
spleen size (weight): increased spleen size

---

test system: Salmonella enteritidis; assay: Stimulation of innate immunity against Salmonella Enteritidis; conditions: liposomal, 20 nmol per dose p.o. 72 and 24 h before infection (LD50); 5 mice
Endpoint name: Day 12 Lungs: clear/infected/dead

Known Day 12 Lungs: clear/infected/dead results, listed for orientation:
Molecule: CCCCCCCCCCCCCCC(CCCCCCCCCCCCCC)C(=O)N[C@H]1[C@H](O[C@H]2[C@H](OCC(=O)N[C@@H](CC)C(=O)N[C@H](CCC(=O)O)C(N)=O)[C@@H](NC(C)=O)C(O)O[C@@H]2CO)O[C@H](CO)[C@@H](O)[C@@H]1O (stereo partly drawn)
Assayed system: Salmonella enteritidis
Result: 4/0/1

Molecule: CCCCCCCCCCCCCCC(CCCCCCCCCCCCCC)C(=O)NCCCC[C@H](NC(=O)CC[C@@H](NC(=O)[C@H](CC)NC(=O)CO[C@H]1[C@H](O[C@@H]2O[C@H](CO)[C@@H](O)[C@H](O)[C@H]2NC(C)=O)[C@@H](CO)OC(O)[C@@H]1NC(C)=O)C(N)=O)C(=O)O (stereo partly drawn)
Assayed system: Salmonella enteritidis
Result: 2/1/2

Here is another molecule to look at.
Field request: Day 12 Lungs: clear/infected/dead | item: CCCCCCCCCCCCCCCCCC(=O)NCCCC[C@H](NC(=O)CC[C@@H](NC(=O)[C@H](CC)NC(=O)CO[C@H]1[C@H](O)[C@@H](CO)OC(O)[C@@H]1NC(C)=O)C(N)=O)C(=O)O (stereo partly drawn)
4/1/0

---

tested on: Salmonella enteritidis; test: Stimulation of innate immunity against Salmonella Enteritidis; details: liposomal, 20 nmol per dose p.o. 72 and 24 h before infection (LD50); 5 mice
Quick reference for Day 12 Liver: clear/infected/dead among some compounds

Compound: CCCCCCCCCCCCCCCCCC(=O)N[C@H]1[C@H](O[C@H]2[C@H](OCC(=O)N[C@@H](CC)C(=O)N[C@H](CCC(=O)O)C(N)=O)[C@@H](NC(C)=O)C(O)O[C@@H]2CO)O[C@H](CO)[C@@H](O)[C@@H]1O (stereo partly shown)
Endpoint name: Day 12 Liver: clear/infected/dead
Result: 1/2/2
--
Compound: CCCCCCCCCCCCCCC(CCCCCCCCCCCCCC)C(=O)N[C@H]1[C@H](O[C@H]2[C@H](OCC(=O)N[C@@H](CC)C(=O)N[C@H](CCC(=O)O)C(N)=O)[C@@H](NC(C)=O)C(O)O[C@@H]2CO)O[C@H](CO)[C@@H](O)[C@@H]1O (stereo partly shown)
Endpoint name: Day 12 Liver: clear/infected/dead
Result: 3/1/1
--
Compound: CCCCCCCCCCCCCCCCCC(=O)NCCCC[C@H](NC(=O)CC[C@@H](NC(=O)[C@H](CC)NC(=O)CO[C@H]1[C@H](O[C@@H]2O[C@H](CO)[C@@H](O)[C@H](O)[C@H]2NC(C)=O)[C@@H](CO)OC(O)[C@@H]1NC(C)=O)C(N)=O)C(=O)O (stereo partly shown)
Endpoint name: Day 12 Liver: clear/infected/dead
Result: 1/1/3

Field request: Day 12 Liver: clear/infected/dead | item: CCCCCCCCCCCCCCC(CCCCCCCCCCCCCC)C(=O)NCCCC[C@H](NC(=O)CC[C@@H](NC(=O)[C@H](CC)NC(=O)CO[C@H]1[C@H](O[C@@H]2O[C@H](CO)[C@@H](O)[C@H](O)[C@H]2NC(C)=O)[C@@H](CO)OC(O)[C@@H]1NC(C)=O)C(N)=O)C(=O)O (stereo partly shown)
2/1/2

---

system: Salmonella enteritidis; assay: Stimulation of innate immunity against Salmonella Enteritidis; settings: liposomal, 20 nmol per dose p.o. 72 and 24 h before infection (LD50); 5 mice
Quick reference for Day 12 Spleen: clear/infected/dead among some compounds

Give Day 12 Spleen: clear/infected/dead (Salmonella enteritidis) of the following compound: CCCCCCCCCCCCCCC(CCCCCCCCCCCCCC)C(=O)NCCCC[C@H](NC(=O)CC[C@@H](NC(=O)[C@H](CC)NC(=O)CO[C@H]1[C@H](O)[C@@H](CO)OC(O)[C@@H]1NC(C)=O)C(N)=O)C(=O)O (stereo partly drawn)
1/3/1

Give Day 12 Spleen: clear/infected/dead (Salmonella enteritidis) of the following compound: CCCCCCCCCCCCCCC(CCCCCCCCCCCCCC)C(=O)N[C@H]1[C@H](O[C@H]2[C@H](OCC(=O)N[C@@H](CC)C(=O)N[C@H](CCC(=O)O)C(N)=O)[C@@H](NC(C)=O)C(O)O[C@@H]2CO)O[C@H](CO)[C@@H](O)[C@@H]1O (stereo partly drawn)
3/1/1

Give Day 12 Spleen: clear/infected/dead (Salmonella enteritidis) of the following compound: CCCCCCCCCCCCCCCCCC(=O)NCCCC[C@H](NC(=O)CC[C@@H](NC(=O)[C@H](CC)NC(=O)CO[C@H]1[C@H](O)[C@@H](CO)OC(O)[C@@H]1NC(C)=O)C(N)=O)C(=O)O (stereo partly drawn)
1/4/0
